# Test system: HCT-15 colon
# experimental protocol: NCI-60 one-dose screen, 48 h (100 = growth as untreated, 0 = no growth, -100 = all killed)
# experimental parameters: 10 µM unless noted
About 83,000 compounds went through this panel and 20% of them were active in at least one assay; those are over-represented in the sample as a whole.
Friendly reminder: growth below 40% is condition met, at or above is condition not met.

{"columns": ["smiles repr", "category"],
 "data": [
  ["O=C(Nc1ccccc1)c1sc(-c2ccccc2)cc1O", "condition not met"],
  ["N=C(N)c1ccc(-c2ccc(-c3ccc(Cl)cc3)o2)o1", "condition met"],
  ["O=C(CCCCCCCCC(=O)N/N=C\\c1cc(Cl)ccc1O)N/N=C\\c1cc(Cl)ccc1O", "condition met"],
  ["C#CC#CC#CC#CC#CC#CC#CC#CC[C@H]1OC[C@H](COC(=O)O[C@@H](C(=O)O[C@H]2C[C@@]3(O)[C@@H](OC(=O)c4ccccc4)[C@@H]4[C@]5(OC(C)=O)CO[C@@H]5C[C@H](O)[C@@]4(C)C(=O)[C@H](OC(C)=O)C(=C2C)C3(C)C)[C@@H](NC(=O)c2ccccc2)c2ccccc2)O1", "condition not met"]
]}

Just wondering, is growth of CN1CCN(CCCOc2ccc3ncnc(Nc4ccc(Oc5cccc(F)c5)c(Cl)c4)c3c2)CC1 below 40%? condition met

Input CCCCc1oc2ccccc2c1C(=O)c1ccc(O)cc1 ; condition: growth strictly below 40%. Does it hold? condition not met

In the record for Nc1ccc([N+](=O)[O-])cc1N=C/C=C/c1ccccc1 , is growth less than 40%? condition not met

Quick check: does CCOC(=O)c1n[nH]n2c1nc(=O)c1cnn(C)c12 have growth under 40%? condition not met

Hi there! Is growth for CCOC(=O)Cn1c(=O)c2c3ccccc3n(C)c2n2nnc(-c3ccccc3)c12 below 40%, do you know? condition not met

Determine if C/C(=N\O)C(=O)NCCCCCC(=O)Nc1ccccc1 shows growth strictly lower than 40%. condition not met

====

# Test system: NCI-H23 lung
# experimental protocol: NCI-60 one-dose screen, 48 h
# experimental parameters: 10 µM unless noted
Compounds without any hit were thinned out: in the full panel of roughly 83,000, 20% have a hit. The source made the active and inactive calls. The calls were made as follows: active = growth percent below 10; inactive = the rest.
Answer with one of the outcomes active, inactive

Here are 4 compounds together with their reported answers.
{"columns": ["compound", "category"],
 "data": [
  ["CCCCc1oc2ccccc2c1C(=O)c1ccc(O)cc1", "active"],
  ["O=C1Nc2ccc(F)cc2/C1=C\\c1nc(-c2ccccc2F)n2ccccc12", "inactive"],
  ["O=C(CSc1nnc2sc(Nc3cccc(Cl)c3)nn12)c1ccc(F)cc1", "inactive"],
  ["C=C1C(=O)O[C@H]2[C@H]1CC/C(COC(=O)c1cc3cc(F)ccc3[nH]1)=C\\CC[C@@]1(C)O[C@@H]21", "active"]
]}

Per the assay record, what outcome was assigned to Oc1c(CN2CCCC2)cc(COCc2ccccc2)c2cccnc12 ? inactive

So what was the verdict on O=C1/C=C/[C@@H](O)[C@@H]2C[C@@H](O)C[C@H]2/C=C/CCC[C@H](CCOCc2ccccc2)O1 in this test? active

So what was the verdict on CC[C@@H](c1ccc2cc(OC)ccc2c1)C(C)(C)C(=O)F in this test? inactive

====

# Test system: SF-295 CNS
# experimental protocol: NCI-60 one-dose screen, 48 h
# experimental parameters: 10 µM unless noted
Compounds without any hit were thinned out: in the full panel of roughly 83,000, 20% have a hit. Calls of active or inactive are those of the source. Rule for the calls: active = growth percent below 10; inactive = the rest.
Write down one outcome, taken from True for active, False for inactive

{"columns": ["compound", "target of assay", "category"],
 "data": [
  ["CN1CCCc2cc(/C=C3/SC(=S)N(CCc4ccc(O)cc4)C3=O)ccc21", "SF-295 CNS", "False"]
]}

Proceed to the following item.
Give the logged outcome of this assay for the following compound: O=C1NC(=C(Cl)Cl)/C(=N/S(=O)(=O)N2CCCCC2)N1 False

Data provenance is PubChem BioAssay (NCI).
